All values here come from ChEMBL document CHEMBL1124085.

tested on: Mus musculus; assay: Oral antimalarial activity against Plasmodium vinckei vinckei in mice (Mus musculus) measured as increase in mean survival time at 50 mg/kg dose; type: functional
Experimental endpoint: MST (days)
Kindly answer with a numeric value in days, unit omitted.

Q: Requested read-out: MST. Entry: "Cn1c(=O)nc2n(-c3ccc(Cl)cc3)c3ccccc3nc-2c1=O"
A: 1.4

Q: Likewise for "Cn1c(=O)nc2n(-c3ccccc3Cl)c3ccccc3nc-2c1=O" ?
A: 0

Q: Likewise for "Cn1c(=O)nc2n(-c3cccc(Cl)c3)c3ccccc3nc-2c1=O" ?
A: 0

Q: Likewise for "Cn1c(=O)nc2n(-c3ccc(F)cc3)c3ccccc3nc-2c1=O" ?
A: 0.8

###

test system: Mus musculus; assay: Oral antimalarial activity against Plasmodium vinckei vinckei in mice (Mus musculus) measured as % cured and increase in MST (days) at 150 mg/kg dose.; assay type: functional
Answer each item with its documented Cured.
Kindly answer with a numeric value in %, unit omitted.

Q: Requested read-out: Cured. Entry: "Cn1c(=O)nc2n(-c3cc(Cl)cc(Cl)c3)c3ccccc3nc-2c1=O"
A: 100

Q: Likewise for "Cn1c(=O)nc2n(-c3ccc(Cl)c(Cl)c3)c3ccccc3nc-2c1=O" ?
A: 40

Q: Likewise for "Cn1c(=O)nc2n(-c3ccc(Cl)cc3Cl)c3ccccc3nc-2c1=O" ?
A: 60

Q: Likewise for "O=c1nc2n(-c3ccc(Cl)cc3)c3ccccc3nc-2c(=O)[nH]1" ?
A: 0

Q: Likewise for "Cc1cc(Cl)ccc1-n1c2nc(=O)n(C)c(=O)c-2nc2ccccc21" ?
A: 40

Q: Likewise for "Cn1c(=O)nc2n(-c3cc(Cl)ccc3Cl)c3ccccc3nc-2c1=O" ?
A: 0

Q: Likewise for "Cn1c(=O)nc2n(-c3cccc(F)c3)c3ccccc3nc-2c1=O" ?
A: 40

###

tested on: Mus musculus; assay: Parenteral antimalarial activity against Plasmodium vinckei in mice (Mus musculus) measured as increase in mean survival time at 10 mg/kg dose; assay type: functional
Experimental endpoint: MST (days)
Kindly answer with a numeric value in days, unit omitted.

Q: Requested read-out: MST. Entry: "Cn1c(=O)nc2n(-c3ccccc3Cl)c3ccccc3nc-2c1=O"
A: 0

Q: Likewise for "Cn1c(=O)nc2n(-c3ccc(Br)cc3)c3ccccc3nc-2c1=O" ?
A: 2

Q: Likewise for "Cn1c(=O)nc2n(-c3ccc(F)cc3)c3ccccc3nc-2c1=O" ?
A: 0

Q: Likewise for "Cn1c(=O)nc2n(-c3ccc(Cl)cc3)c3ccccc3nc-2c1=O" ?
A: 1.5

###

test system: Mus musculus; assay: Parenteral antimalarial activity against Plasmodium vinckei vinckei in mice (Mus musculus) measured as % cured and increase in MST (days) at 10 mg/kg dose.; format: functional
Answer each item with its documented Cured.
Kindly answer with a numeric value in %, unit omitted.

Q: State its Cured on Mus musculus: "Cn1c(=O)nc2n(-c3ccc(Cl)cc3Cl)c3ccccc3nc-2c1=O"
A: 0

Q: Likewise for "Cn1c(=O)nc2n(-c3ccc(Cl)c(Cl)c3)c3ccccc3nc-2c1=O" ?
A: 0

Q: Likewise for "Cn1c(=O)nc2n(-c3cc(Cl)ccc3Cl)c3ccccc3nc-2c1=O" ?
A: 0

Q: Likewise for "O=c1nc2n(-c3ccc(Cl)cc3)c3ccccc3nc-2c(=O)[nH]1" ?
A: 0

Q: Likewise for "Cn1c(=O)nc2n(-c3cccc(F)c3)c3ccccc3nc-2c1=O" ?
A: 0

Q: Likewise for "Cn1c(=O)nc2n(-c3cc(Cl)cc(Cl)c3)c3ccccc3nc-2c1=O" ?
A: 100

###

Answer each item with its documented Cured.
test system: Mus musculus; assay: Parenteral antimalarial activity against Plasmodium vinckei in mice (Mus musculus) measured as % cured and increase in MST (days) at 25 mg/kg dose; assay type: functional
Kindly answer with a numeric value in %, unit omitted.

Q: Requested read-out: Cured. Entry: "Cn1c(=O)nc2n(-c3cccc(Cl)c3)c3ccccc3nc-2c1=O"
A: 0

Q: Likewise for "Cn1c(=O)nc2n(-c3cccc(Br)c3)c3ccccc3nc-2c1=O" ?
A: 60

Q: Likewise for "Cn1c(=O)nc2n(-c3ccc(F)cc3)c3ccccc3nc-2c1=O" ?
A: 0

Q: Likewise for "Cn1c(=O)nc2n(-c3ccccc3Cl)c3ccccc3nc-2c1=O" ?
A: 0

Q: Likewise for "Cn1c(=O)nc2n(-c3ccc(Br)cc3)c3ccccc3nc-2c1=O" ?
A: 60

###

test system: Mus musculus; assay: Parenteral antimalarial activity against Plasmodium vinckei vinckei in mice (Mus musculus) measured as % cured and increase in MST (days) at 25 mg/kg dose.; assay type: functional
Answer each item with its documented Cured.
Kindly answer with a numeric value in %, unit omitted.

Q: Requested read-out: Cured. Entry: "Cn1c(=O)nc2n(-c3ccc(Cl)c(Cl)c3)c3ccccc3nc-2c1=O"
A: 80

Q: Likewise for "Cn1c(=O)nc2n(-c3cccc(F)c3)c3ccccc3nc-2c1=O" ?
A: 0

Q: Likewise for "Cn1c(=O)nc2n(-c3cc(Cl)cc(Cl)c3)c3ccccc3nc-2c1=O" ?
A: 100

Q: Likewise for "Cn1c(=O)nc2n(-c3ccc(Cl)cc3Cl)c3ccccc3nc-2c1=O" ?
A: 0

Q: Likewise for "Cc1cc(Cl)ccc1-n1c2nc(=O)n(C)c(=O)c-2nc2ccccc21" ?
A: 0

Q: Likewise for "O=c1nc2n(-c3ccc(Cl)cc3)c3ccccc3nc-2c(=O)[nH]1" ?
A: 0

Q: Likewise for "Cn1c(=O)nc2n(-c3cc(Cl)ccc3Cl)c3ccccc3nc-2c1=O" ?
A: 0

###

system: Mus musculus; test: Oral antimalarial activity against Plasmodium vinckei vinckei in mice (Mus musculus) measured as % cured and increase in MST (days) at 50 mg/kg dose; assay type: functional
Answer each item with its documented Cured.
Kindly answer with a numeric value in %, unit omitted.

Q: Requested read-out: Cured. Entry: "Cn1c(=O)nc2n(-c3cccc(Cl)c3)c3ccccc3nc-2c1=O"
A: 0

Q: Likewise for "Cn1c(=O)nc2n(-c3ccccc3Cl)c3ccccc3nc-2c1=O" ?
A: 0

Q: Likewise for "Cn1c(=O)nc2n(-c3ccc(F)cc3)c3ccccc3nc-2c1=O" ?
A: 0

Q: Likewise for "Cn1c(=O)nc2n(-c3cccc(Br)c3)c3ccccc3nc-2c1=O" ?
A: 20

Q: Likewise for "Cn1c(=O)nc2n(-c3ccc(Cl)cc3)c3ccccc3nc-2c1=O" ?
A: 75

Q: Likewise for "Cn1c(=O)nc2n(-c3ccc(Br)cc3)c3ccccc3nc-2c1=O" ?
A: 100

###

system: Mus musculus; assay: Parenteral antimalarial activity against Plasmodium vinckei in mice (Mus musculus) measured as % cured and increase in MST (days) at 15 mg/kg dose.; type: functional
Experimental endpoint: Cured (%)
Kindly answer with a numeric value in %, unit omitted.

Q: Requested read-out: Cured. Entry: "Cn1c(=O)nc2n(-c3ccc(Cl)cc3Cl)c3ccccc3nc-2c1=O"
A: 0

Q: Likewise for "Cc1cc(Cl)ccc1-n1c2nc(=O)n(C)c(=O)c-2nc2ccccc21" ?
A: 0

Q: Likewise for "O=c1nc2n(-c3ccc(Cl)cc3)c3ccccc3nc-2c(=O)[nH]1" ?
A: 0

Q: Likewise for "Cn1c(=O)nc2n(-c3cccc(F)c3)c3ccccc3nc-2c1=O" ?
A: 0

Q: Likewise for "Cn1c(=O)nc2n(-c3ccc(Cl)c(Cl)c3)c3ccccc3nc-2c1=O" ?
A: 60

Q: Likewise for "Cn1c(=O)nc2n(-c3cc(Cl)ccc3Cl)c3ccccc3nc-2c1=O" ?
A: 0

Q: Likewise for "Cn1c(=O)nc2n(-c3cc(Cl)cc(Cl)c3)c3ccccc3nc-2c1=O" ?
A: 100

###

system: Mus musculus; experiment: Parenteral antimalarial activity against Plasmodium vinckei vinckei in mice (Mus musculus) measured as increase in mean survival time at 20 mg/kg dose.; type: functional
Answer each item with its documented MST.
Kindly answer with a numeric value in days, unit omitted.

Q: Requested read-out: MST. Entry: "Cn1c(=O)nc2n(-c3ccc(Cl)cc3Cl)c3ccccc3nc-2c1=O"
A: 0

Q: Likewise for "Cc1cc(Cl)ccc1-n1c2nc(=O)n(C)c(=O)c-2nc2ccccc21" ?
A: 1.2

Q: Likewise for "Cn1c(=O)nc2n(-c3cccc(F)c3)c3ccccc3nc-2c1=O" ?
A: 1.7

Q: Likewise for "Cn1c(=O)nc2n(-c3cc(Cl)ccc3Cl)c3ccccc3nc-2c1=O" ?
A: 0

###

Answer each item with its documented MST.
test system: Mus musculus; test: Oral antimalarial activity against Plasmodium vinckei in mice (Mus musculus) measured as increase in mean survival time at 150 mg/kg dose; format: functional
Kindly answer with a numeric value in days, unit omitted.

Q: Requested read-out: MST. Entry: "Cn1c(=O)nc2n(-c3cccc(Br)c3)c3ccccc3nc-2c1=O"
A: 1

Q: Likewise for "Cn1c(=O)nc2n(-c3cccc(Cl)c3)c3ccccc3nc-2c1=O" ?
A: 2.5

Q: Likewise for "Cn1c(=O)nc2n(-c3ccc(Cl)cc3)c3ccccc3nc-2c1=O" ?
A: 2.7

Q: Likewise for "Cn1c(=O)nc2n(-c3ccc(F)cc3)c3ccccc3nc-2c1=O" ?
A: 2.3

Q: Likewise for "Cn1c(=O)nc2n(-c3ccccc3Cl)c3ccccc3nc-2c1=O" ?
A: 0
